Measured values drawn from ChEMBL document CHEMBL1201862 for this set.

Examples of compounds with documented GI50 follow.
- System: OVCAR-4
- experimentalProtocol: NCI tumour cell line growth inhibition, 48 h
Activity calls are given as the source filed them. Cut-off read from the data, not from the text of the source: active = GI50 up to about 1.1 µM and inactive = higher.

{"compound": "COC1=C2CC(C)CC(OC)C(O)C(C)/C=C(\\C)C(OC(N)=O)C(OC)/C=C\\C=C(/C)C(=O)NC(=C(/C=N/N3CCCCC3)C1=O)C2=O (stereo not given)", "observed": "5.26 µM (inactive)"}
{"compound": "CC1=C(C)CC2(C=C(C(C)(C)C)C(=O)C(C(C)(C)C)=C2)SC1", "observed": "26.7 µM (inactive)"}
{"compound": "Cc1nc2cc(/N=N/c3c(C)noc3C)ccc2[nH]1", "observed": "64.7 µM (inactive)"}
{"compound": "COc1cc(/C=C2\\C(=O)N(c3cccc([N+](=O)[O-])c3)C(c3ccccc3)S2(=O)=O)cc(OC)c1OC (stereo not given)", "observed": "80 µM (inactive)"}

Please look at the following compound next.
What GI50 value was documented for this compound, Cc1ccccc1CN1CC2=C(CCN(Cc3ccccc3)C2=O)N2CCN=C12 ?
3.27 µM (inactive)

====

- Test system: OVCAR-5
- experimentalProtocol: NCI tumour cell line growth inhibition, 48 h
Activity calls are given as the source filed them. Rule as the data show it: active = GI50 up to about 1.1 µM and inactive = higher.
valueKind: GI50

Some solved cases for reference:
{"compound": "CC(C)(O)[C@@H]1CC[C@@]2(C)CCC[C@H](O)[C@H]2C1", "GI50": "> 100 µM (inactive)"}
{"compound": "O=S(=O)(c1ccccc1)C1(C2(S(=O)(=O)c3ccccc3)CCN=N2)CCN=N1 (stereo not drawn)", "GI50": "> 100 µM (inactive)"}
{"compound": "C=CCc1cc(OC)c2c(c1)C(O)CC(c1ccccc1)O2 (stereo not drawn)", "GI50": "78.5 µM (inactive)"}
{"compound": "COC(=O)C1CC2CC1C1C2SC(F)(F)C1(F)F (stereo not drawn)", "GI50": "> 100 µM (inactive)"}

What value of GI50 on OVCAR-5 does CN1C(=O)C(O)CC1c1ccccc1F (stereo not drawn) have?
> 100 µM (inactive)

What value of GI50 on OVCAR-5 does Cc1cccc(C)c1NC(=O)CCc1nnc(S)[nH]1 have?
> 100 µM (inactive)

What value of GI50 on OVCAR-5 does COC(=O)c1ccccc1CC1Cc2cccc(C)c2C1=O (stereo not drawn) have?
57.5 µM (inactive)

What value of GI50 on OVCAR-5 does O=C1C(c2ccccc2)=C(c2ccccc2)C1(Cl)Cl have?
7.82 µM (inactive)

What value of GI50 on OVCAR-5 does OC1c2ccccc2C2(O)C1C(c1ccccc1)C(c1ccccc1)C2(O)c1ccccc1 (stereo not drawn) have?
10.7 µM (inactive)

What value of GI50 on OVCAR-5 does C(=N\c1ccc(-c2nc3ccccc3[nH]2)cc1)/c1ccc[nH]1 have?
> 100 µM (inactive)

====

Examples of compounds with documented GI50 follow.
- Tested on: OVCAR-4
- experimentalProtocol: NCI tumour cell line growth inhibition, 48 h
The source made the active and inactive calls. Cut-off read from the data, not from the text of the source: active = GI50 up to about 1.1 µM and inactive = higher.

Some solved cases for reference:
{"compound": "Nc1nc(Cl)c(/C=N\\O)c(NCC2(CO)CC(=O)C2)n1", "targetUnderTest": "OVCAR-4", "observed": "84.3 µM (inactive)"}
{"compound": "c1ccc(CNc2ccc3[nH]c4cnccc4c3c2)cc1", "targetUnderTest": "OVCAR-4", "observed": "14.4 µM (inactive)"}
{"compound": "c1ccc(C2Nc3ccccc3C3OCCCC23)cc1 (centres undefined)", "targetUnderTest": "OVCAR-4", "observed": "47.3 µM (inactive)"}

Please look at the following compound next.
What GI50 value was documented for this compound, O=C1O[C@H](c2ccc3c(c2)OCO3)[C@H]2CO[C@@H](c3ccc4c(c3)OCO4)[C@@H]12 ?
96.2 µM (inactive)

====

- Test system: DMS-114
- experimentalProtocol: NCI tumour cell line growth inhibition, 48 h
Calls of active or inactive are those of the source. No stated cut-off is given here; in the data, active = GI50 up to about 1.1 µM and inactive = higher.
Examples of compounds with documented GI50 follow.

Some solved cases for reference:
{"compound": "Cc1cc(C)cc(NC(N)=S)c1", "observed": "45.3 µM (inactive)"}
{"compound": "Cc1c(CNc2ccc(C(=O)NC(CC(=O)O)C(=O)O)cc2)ccc2nc(N)nc(N)c12 (centres undefined)", "observed": "< 0.01 µM (active)"}
{"compound": "O=C1C2C3CCC(C2C(=O)N1CO)C1C2C(=O)N(CO)C(=O)C2C31 (centres undefined)", "observed": "25.6 µM (inactive)"}

What GI50 value was documented for this compound, c1ccc(C2Nc3ccccc3C3OCCCC23)cc1 (centres undefined) ?
21.1 µM (inactive)

What GI50 value was documented for this compound, c1ccc(CNc2ccc3[nH]c4cnccc4c3c2)cc1 ?
14.8 µM (inactive)

What GI50 value was documented for this compound, O=C(c1ccccc1O)c1cc(-c2ncc3c(=O)c4ccccc4oc3n2)c(-c2ccccc2O)[nH]c1=O ?
28.8 µM (inactive)

What GI50 value was documented for this compound, Cc1cn(Cc2ccccc2CCO)c(=S)[nH]c1=O ?
> 100 µM (inactive)

What GI50 value was documented for this compound, COC(=O)C(CC(=O)c1cc2c(cc1I)OCO2)Cc1cc(OC)c(OC)c(OC)c1I (centres undefined) ?
22.8 µM (inactive)

What GI50 value was documented for this compound, COc1cc(C2c3cc4c(cc3[C@@H](Nc3ccc(F)cc3)C3COC(=O)[C@H]23)OCO4)cc(OC)c1O (some centres undefined) ?
2.64 µM (inactive)

What GI50 value was documented for this compound, COc1ccc(N2C(=O)C3c4[nH]c5ccccc5c4C4CCCCCCC4C3C2=O)cc1 (centres undefined) ?
8.71 µM (inactive)

What GI50 value was documented for this compound, CCOC(=O)/C(=C/c1ccc(C(F)(F)F)cc1)N(CC)CC ?
30.8 µM (inactive)

What GI50 value was documented for this compound, O=C(Cc1nc2ccccc2c(=O)n1-c1c(Cl)cccc1Cl)c1ccncc1 ?
25.2 µM (inactive)

What GI50 value was documented for this compound, CCOC(=O)NC(=O)c1cn(CCN2CCN(c3ncnc4[nH]cnc34)CC2)c(=O)[nH]c1=O ?
> 100 µM (inactive)

What GI50 value was documented for this compound, O=C(/C=C/c1ccccc1Cl)c1ccc(Cl)cc1Cl ?
11.8 µM (inactive)

====

- System: M19-MEL
- experimentalProtocol: NCI tumour cell line growth inhibition, 48 h
The source made the active and inactive calls. Cut-off read from the data, not from the text of the source: active = GI50 up to about 1.1 µM and inactive = higher.
valueKind: GI50

{"compound": "CC1=C(C(=O)NCc2ccccc2)C(c2ccc(N(C)C)cc2)C(C(=O)NCc2ccccc2)=C(C)N1", "GI50": "> 100 µM (inactive)"}
{"compound": "C[N+](C)(C)CC1CCC/C1=N\\OC(=O)c1ccccc1 (stereo unspecified)", "GI50": "> 100 µM (inactive)"}
{"compound": "COC(=O)c1c(CC(=O)OC(C)C)cc2n(c1=O)Cc1c-2nc2ccccc2c1OC", "GI50": "> 100 µM (inactive)"}

What GI50 value was documented for this compound, Sc1nnc(C(c2ccccc2)c2ccccc2)[nH]1 ?
> 100 µM (inactive)

What GI50 value was documented for this compound, Cc1cc(C)nc(NS(=O)(=O)c2ccc(Nc3c4ccc(Cl)cc4nc4c(C(=O)Nc5ccc(S(=O)(=O)N=C(N)N)cc5)cccc34)cc2)n1 ?
> 100 µM (inactive)

What GI50 value was documented for this compound, Nc1ccc(N)c2c1C(=O)c1ccccc1C2=O ?
95.5 µM (inactive)

What GI50 value was documented for this compound, O=C(/C=C/c1ccccc1Cl)c1ccc(Cl)cc1Cl ?
18 µM (inactive)

====

- Test system: PC-3
- experimentalProtocol: NCI tumour cell line growth inhibition, 48 h
Activity calls are given as the source filed them. No stated cut-off is given here; in the data, active = GI50 up to about 1.1 µM and inactive = higher.
Examples of compounds with documented GI50 follow.

What value of GI50 on PC-3 does CCOC(=O)c1c(-c2ccc(OC)cc2)c(C#N)c(=S)n(C2OC(CO)C(O)C(O)C2O)c1-c1ccccc1 (stereo not drawn) have?
35.6 µM (inactive)

What value of GI50 on PC-3 does CC(CC(C)[C@H]1CCC2[C@H]3C(CC[C@@]21C)[C@@]1(C)CCC(O)C[C@H]1C[C@@H]3O)C(=O)O (stereo partly drawn) have?
> 100 µM (inactive)

====

Examples of compounds with documented GI50 follow.
- Test system: SN12C
- experimentalProtocol: NCI tumour cell line growth inhibition, 48 h
Activity calls are given as the source filed them. Cut-off read from the data, not from the text of the source: active = GI50 up to about 1.1 µM and inactive = higher.

{"smilesRepresentation": "CC(C)(c1ccccc1)c1ccc(Oc2ccc(C#N)c(C#N)c2)cc1", "observed": "> 10 µM (inactive)"}
{"smilesRepresentation": "C=CC(C)(C)/C=C/c1ccc(O)cc1", "observed": "34.5 µM (inactive)"}
{"smilesRepresentation": "CN(C)c1ccc(C(c2ccc(Cl)cc2)c2ccc(N(C)C)cc2)cc1", "observed": "> 100 µM (inactive)"}
{"smilesRepresentation": "O=C(/C=C/c1ccccc1O)/C=C/c1ccccc1O", "observed": "1.72 µM (inactive)"}
{"smilesRepresentation": "N/C(=N\\c1ccc(Cl)cc1)NS(=O)(=O)c1ccc(-c2ccccn2)s1", "observed": "15.5 µM (inactive)"}
{"smilesRepresentation": "N#Cc1cc(N(CCCl)CCCl)c([N+](=O)[O-])cc1[N+](=O)[O-]", "observed": "48 µM (inactive)"}
{"smilesRepresentation": "O=C1OC(c2ccco2)=N/C1=C\\c1ccc(Cl)c(Cl)c1", "observed": "> 100 µM (inactive)"}
{"smilesRepresentation": "O=C1O[C@H](c2ccc3c(c2)OCO3)[C@H]2CO[C@@H](c3ccc4c(c3)OCO4)[C@@H]12", "observed": "> 100 µM (inactive)"}

Please look at the following compound next.
What GI50 value was documented for this compound, CC1=NN(C(=O)c2ccccc2O)C(=O)/C1=C/c1ccc([N+](=O)[O-])cc1 ?
0.372 µM (active)
